Hello, the source for this data is PubChem BioAssay (EPA / NIEHS), in case you need it.

# system-name: Nuclear receptor subfamily 1 group I member 2 (Homo sapiens) (UniProt O75469)
# Sequence (O75469 whole entry, looked up): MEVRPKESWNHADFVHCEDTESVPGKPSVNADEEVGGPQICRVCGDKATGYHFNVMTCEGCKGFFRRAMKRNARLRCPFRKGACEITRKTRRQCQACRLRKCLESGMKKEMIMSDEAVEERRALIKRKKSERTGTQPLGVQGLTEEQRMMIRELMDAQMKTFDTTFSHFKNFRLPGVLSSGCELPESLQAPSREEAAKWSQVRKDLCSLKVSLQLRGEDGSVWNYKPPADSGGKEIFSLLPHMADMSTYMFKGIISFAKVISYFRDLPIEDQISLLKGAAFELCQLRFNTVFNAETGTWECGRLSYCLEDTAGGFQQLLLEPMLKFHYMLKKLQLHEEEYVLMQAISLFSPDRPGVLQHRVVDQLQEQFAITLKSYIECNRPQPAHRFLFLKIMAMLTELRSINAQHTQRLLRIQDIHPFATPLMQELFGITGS
# procedure-summary: ATG_PXR_TRANS: Attagene TRANS-FACTORIAL HepG2 Assay for human Pregnane X Receptor (PXR) (AID 2283008)
Records with an inconclusive call do not appear. Activity calls are given as the source filed them. Rule for the calls: active = hit-call score of the fitted dose curve at least 0.9, where 1 is the maximum; inconclusive = response in the unintended direction; inactive = score below 0.9.
quantity-kind: outcome

Cc1cccc(C)c1[N+](=O)[O-] : inactive
O=C(O)c1cn(C2CC2)c2cc(N3CCNCC3)c(F)cc2c1=O : inactive
NCCCCCCN : inactive

* * *

# Read-out: Intercellular Adhesion Molecule 1 (ICAM1), ICAM1 (gene 3383)
# procedure-summary: BSK_3C_ICAM1: BioMAP Diversity Plus: 3C Assay for Intercellular Adhesion Molecule 1 (ICAM1) Biomarker Activity (AID 2283003)
# stated-conditions: primary human endothelial cells (HUVEC); actives raise or lower the signal
The source made the active and inactive calls. Rule for the calls: active = hit-call score of the fitted dose curve at least 0.9, where 1 is the maximum; inactive = score below 0.9.
In this exercise, the only acceptable responses are active, inactive

Reference set (5 entries):
CCCCCCCCC=O : inactive
CCCCC(CC)COCCC#N (centres undefined) : inactive
C#C[C@]1(O)CC[C@H]2[C@@H]3CCC4=Cc5oncc5C[C@]4(C)[C@H]3CC[C@@]21C : inactive
Cc1ccc(Nc2ccc(O)c3c2C(=O)c2ccccc2C3=O)cc1 : inactive
N#Cc1ccc(CC(=NNC(=O)Nc2ccc(OC(F)(F)F)cc2)c2cccc(C(F)(F)F)c2)cc1 : inactive

Which outcome was assigned to CCCCC/C=C/C=C/C=O in this test?
active

For this compound, state the assay outcome: O=C(O)c1cn(C2CC2)c2cc(N3CCNCC3)c(F)cc2c1=O
inactive

Name the outcome recorded for Nc1cc([N+](=O)[O-])ccc1Cl in the assay.
inactive
